Test System: Regulator of G-protein signaling 4 (Homo sapiens) (UniProt P49798)
Sequence (P49798 whole entry, looked up): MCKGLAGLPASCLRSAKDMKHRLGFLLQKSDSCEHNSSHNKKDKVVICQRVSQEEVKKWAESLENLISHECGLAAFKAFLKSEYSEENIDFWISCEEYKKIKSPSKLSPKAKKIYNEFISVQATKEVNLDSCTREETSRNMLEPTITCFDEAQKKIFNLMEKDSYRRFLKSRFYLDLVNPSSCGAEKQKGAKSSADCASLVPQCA
Assay Notes: small molecules altering RGS4 binding to Galphao – biochemical, bead-based flow cytometry, multiplex, dose response (AID 1872)
Run Conditions: measured here: Ki for RGS4-Galphao
Label MET when Ki is strictly below 3000 nM; otherwise label NOT MET.

Reference set, count: 8
{"Compound": "COCCCNC(=O)c1ccc2c3c(onc13)-c1ccccc1C2=O", "Test System": "Regulator of G-protein signaling 4 (Homo sapiens) (UniProt P49798)", "Class Label": "MET"}
{"Compound": "CCC(=O)NC(c1ccc(C)cc1)c1cc([N+](=O)[O-])c2cccnc2c1O (centres undefined)", "Test System": "Regulator of G-protein signaling 4 (Homo sapiens) (UniProt P49798)", "Class Label": "NOT MET"}
{"Compound": "O=C(COc1ccccc1C(=O)N/N=C\\c1ccc(O)c(O)c1)N/N=C/c1ccc(O)c(O)c1", "Test System": "Regulator of G-protein signaling 4 (Homo sapiens) (UniProt P49798)", "Class Label": "NOT MET"}
{"Compound": "COc1ccc(C2=CC(=O)C=CC2=O)cc1", "Test System": "Regulator of G-protein signaling 4 (Homo sapiens) (UniProt P49798)", "Class Label": "NOT MET"}
{"Compound": "O=C1C(Cl)=C(N2CCCCC2)C(=O)C(Cl)=C1c1cnc(N2CCCCC2)s1", "Test System": "Regulator of G-protein signaling 4 (Homo sapiens) (UniProt P49798)", "Class Label": "MET"}
{"Compound": "CCN1/C(=C/C=C/C=C/c2sc3ccccc3[n+]2CC)Sc2ccccc21", "Test System": "Regulator of G-protein signaling 4 (Homo sapiens) (UniProt P49798)", "Class Label": "MET"}
{"Compound": "O=C(O[C@@H]1OC2COC(=O)c3cc(O)c(O)c(O)c3-c3c(cc(O)c(O)c3O)C(=O)O[C@@H]([C@H]1O)[C@@H]2O)c1cc(O)c(O)c(O)c1", "Test System": "Regulator of G-protein signaling 4 (Homo sapiens) (UniProt P49798)", "Class Label": "NOT MET"}
{"Compound": "CN1CCN(C2=C(Cl)C(=O)C(c3cnc(N4CCCCC4)s3)=C(Cl)C2=O)CC1", "Test System": "Regulator of G-protein signaling 4 (Homo sapiens) (UniProt P49798)", "Class Label": "MET"}

[ask] Please state whether Ki is below 3000 nM for `CN(C)c1ncc(C2=C(Cl)C(=O)C(N3CCCC3)=C(Cl)C2=O)s1`
[reply] MET

###

Test System: Regulator of G-protein signaling 4 (Homo sapiens) (UniProt P49798)
Assay Notes: small molecules altering RGS4 binding to Galphao – biochemical, bead-based flow cytometry, multiplex, dose response (AID 1872)
Run Conditions: measured here: Ki for RGS4-Galphao
Known Ki of a selection of compounds
Express the result in µM but write the number alone.

Record excerpt, results attached:
{"Compound": "O=C(Cc1csc(N2CCOCC2)n1)N/N=C/c1ccc(O)c(O)c1O", "Ki (µM)": 14.8}
{"Compound": "CCN=c1scc(C)n1/N=C/c1ccc(O)c(O)c1O", "Ki (µM)": 21.5}
{"Compound": "CC1(C)OC(=O)C(=Cc2ccc(-c3ccc(S(N)(=O)=O)cc3)o2)C(=O)O1", "Ki (µM)": 8.26}
{"Compound": "COC(=O)CCC(=O)Nc1sc(C)c(C)c1C(N)=O", "Ki (µM)": 6.49}

[ask] Which measured Ki value corresponds to O=C(OCC1O[C@@H](OC(=O)c2cc(O)c(O)c(O)c2)[C@@H](OC(=O)c2cc(O)c(O)c(O)c2)[C@@H](OC(=O)c2cc(O)c(O)c(O)c2)[C@@H]1OC(=O)c1cc(O)c(O)c(O)c1)c1cc(O)c(O)c(O)c1 (some centres undefined) ?
[reply] 0.38

[ask] Which measured Ki value corresponds to `NS(=O)(=O)c1ccc(N/N=C/c2ccc(O)c(O)c2O)c([N+](=O)[O-])c1` ?
[reply] 3.03

[ask] Which measured Ki value corresponds to `CN=c1scc(C)n1/N=C/c1ccc(O)c(O)c1O` ?
[reply] 12

[ask] Which measured Ki value corresponds to `CCNc1ccc2noc3c2c1C(=O)c1ccccc1-3` ?
[reply] 22.5

[ask] Which measured Ki value corresponds to `COc1ccc(OC)c(CCNC(=O)Cn2sc3nc(C)cc(C)c3c2=O)c1` ?
[reply] 5.6

[ask] Which measured Ki value corresponds to `CCN(CC)S(=O)(=O)c1cccc(C(=O)N/N=C/c2ccc(O)c(O)c2O)c1` ?
[reply] 4.73

[ask] Which measured Ki value corresponds to `O=C1CCC(=O)N(O)CCCCCNC(=O)CCC(=O)N(O)CCCCCNC(=O)CCC(=O)N(O)CCCCCN1` ?
[reply] 2.2

###

Test System: Regulator of G-protein signaling 4 (Homo sapiens) (UniProt P49798)
Assay Notes: small molecules altering RGS4 binding to Galphao – biochemical, bead-based flow cytometry, multiplex, dose response (AID 1872)
Active and inactive are the calls of the source. The rule behind the calls is not given here.
Respond only with the outcome that fits, drawn from y for active, n for inactive

{"Compound": "CN(C)[C@@H]1C(=O)C(C(=O)NCN2CCCC2)=C(O)[C@@]2(O)C(=O)C3=C(O)c4c(O)cccc4[C@@](C)(O)C3CC12 (stereo not given in full)", "Test System": "Regulator of G-protein signaling 4 (Homo sapiens) (UniProt P49798)", "Class Label": "y"}
{"Compound": "O=C1CCCC2=C1C(c1cccs1)n1ncnc1N2 (stereo not given)", "Test System": "Regulator of G-protein signaling 4 (Homo sapiens) (UniProt P49798)", "Class Label": "n"}

[ask] For `O=c1[nH]c(=S)n(Cc2ccco2)c(O)c1C=NCc1cccs1` , what call appears in the results of this test?
[reply] n

[ask] For `CCOC(=O)N=Nc1c(O)n(C)c2ccccc12` , what call appears in the results of this test?
[reply] n

[ask] For CC(C)Sc1nc2ccc(N3C(=O)C4CCCCC4C3=O)cc2s1 (stereo not given) , what call appears in the results of this test?
[reply] n

###

Test System: Regulator of G-protein signaling 4 (Homo sapiens) (UniProt P49798)
Assay Notes: small molecules altering RGS4 binding to Galphao – biochemical, bead-based flow cytometry, multiplex, dose response (AID 1872)
Active and inactive are the calls of the source. No rule for the calls is given here.
Respond only with the outcome that fits, drawn from True = active, False = inactive

{"Compound": "CCOC(=O)C1=C(C)NC(C)=C(C(=O)OCCNC(=O)c2cccnc2)C1c1cccc([N+](=O)[O-])c1 (centres undefined)", "Class Label": "False"}
{"Compound": "CCOC(=O)/C(C(=O)Nc1ccccc1Cl)=C1/NC(C)(C)Cc2ccccc21", "Class Label": "False"}
{"Compound": "NS(=O)(=O)c1ccc(N/N=C/c2ccc(O)c(O)c2O)c([N+](=O)[O-])c1", "Class Label": "True"}

Please find the next compound below.
[ask] For `COc1ccc(Br)cc1/C=N/Nc1cccc(C(=O)O)c1` , what call appears in the results of this test?
[reply] False

###

Test System: Regulator of G-protein signaling 4 (Homo sapiens)
Assay Notes: small molecules altering RGS4 binding to Galphao – biochemical, bead-based flow cytometry, multiplex, dose response (AID 1872)
Run Conditions: measured here: Ki for RGS4-Galphao
Reported Metric: pKi
Lab note: report pKi as minus log10 of the concentration in molar units, number only.

{"Compound": "NS(=O)(=O)c1ccc(CNC(=O)/C=C/c2ccco2)cc1", "Reported Metric": "pKi", "Recorded Measurement": 5.11}
{"Compound": "CC(=O)N(O)CCCCCNC(=O)CCC(=O)N(O)CCCCCNC(=O)CCC(=O)N(O)CCCCCN", "Reported Metric": "pKi", "Recorded Measurement": 5.87}
{"Compound": "CN(C)[C@@H]1C(=O)C(C(=O)NCN2CCCC2)=C(O)[C@@]2(O)C(=O)C3=C(O)c4c(O)cccc4[C@@](C)(O)C3CC12 (stereo partly drawn)", "Reported Metric": "pKi", "Recorded Measurement": 5.00}
{"Compound": "Cc1cc(Cl)ccc1N=c1ssnc1Cl", "Reported Metric": "pKi", "Recorded Measurement": 5.34}
{"Compound": "O=C(O)C[C@@H]1C(=O)O[C@@H]2C(COC(=O)c3cc(O)c(O)c(O)c3)O[C@@H](OC(=O)c3cc(O)c(O)c(O)c3)[C@@H](OC(=O)c3cc(O)c(O)c4c3[C@H]1[C@H](O)C(=O)O4)[C@H]2OC(=O)c1cc(O)c(O)c(O)c1 (stereo partly drawn)", "Reported Metric": "pKi", "Recorded Measurement": 6.06}
{"Compound": "O=C1OCC2OC(O)C(O)C(O)C2OC(=O)c2cc(O)c(O)c(O)c2-c2c(O)c(O)c3oc(=O)c4c(c(O)c(O)c5oc(=O)c2c3c54)-c2c1cc(O)c(O)c2O (stereo not drawn)", "Reported Metric": "pKi", "Recorded Measurement": 5.69}
{"Compound": "CCC(=O)NC1=C(Cl)C(=O)C(NC(=O)CC)=C(Cl)C1=O", "Reported Metric": "pKi", "Recorded Measurement": 5.34}

[ask] Which measured pKi value corresponds to Nc1c(C(=O)NCC2CCCO2)sc2nc3c(c(-c4ccco4)c12)CC/C3=C\c1ccco1 (stereo not drawn) ?
[reply] 5.56
